Data provenance is PubChem BioAssay (NCI).

System: MOLT-4 leukemia
experiment: NCI-60 one-dose screen, 48 h
test.settings: 10 µM unless noted
About 83,000 compounds went through this panel and 20% of them were active in at least one assay; those are over-represented in the sample as a whole. The source made the active and inactive calls. Rule for the calls: active = growth percent below 10; inactive = the rest.
Classes to choose from: active, inactive

1. Cc1ccc(-c2nc3c(N=Nc4ccc(S(N)(=O)=O)cc4)c(N)nn3c(N)c2C#N)cc1    active

Input line: Hi, do you know how `O=C(O)c1cc2ccccc2cc1Nc1ccccc1` came out in this test?
Output line: inactive

Input line: Hi, do you know how Nc1ncnc2c1ncn2C1OC(COC(c2ccccc2)(c2ccccc2)c2ccccc2)C(O)C1O (stereo not given) came out in this test?
Output line: inactive

Input line: Hi, do you know how `C[C@H]1C=C(C[C@@H](O)CCCCCCCCCC[C@@H](O)[C@H]2CCC(=O)O2)C(=O)O1` came out in this test?
Output line: inactive

Input line: Hi, do you know how `O=C(Nc1ccc(-n2cc(-c3ccncc3)c(-c3ccc(O)c(Cl)c3)n2)cc1)Nc1cccc(Cl)c1Cl` came out in this test?
Output line: inactive

Input line: Hi, do you know how `CCOC(=O)c1noc2c1CCc1cn(Cc3cc(OC)cc(OC)c3)cc1-2` came out in this test?
Output line: inactive

Input line: Hi, do you know how `CCOC(=O)c1noc2c1CCc1c-2cn(Cc2ccc(OC)cc2)c1-c1cc(OC)c(OC)c(OC)c1` came out in this test?
Output line: inactive
